tested on: CP260; assay: qHTS profiling for inhibitors of Plasmodium falciparum proliferation (AID 504749); note: nearly all actives have a fitted effect of over 60% in size; note: potency is the fitted concentration of half-maximal effect; conditions: P. falciparum in erythrocytes, SYBR Green DNA, 72 h; series mostly up to 28.7 µM
Records with an inconclusive call do not appear. Calls of active or inactive are those of the source. Calls come from the whole dose curve; as a rule, active = well fitted inhibition curve with a large enough effect; inconclusive = small, poorly fitted or top-dose-only effect; inactive = flat fitted curve, though single readings scatter.
parameter: Potency

Use these answered entries as a reference point.
[[record]]
molecule = "CC1=NN(c2ccccc2)C(=O)C1"
parameter = "Potency"
valueobserved = "inactive"

[[record]]
molecule = "CC(C)NCC(O)c1ccc(NS(C)(=O)=O)cc1 (stereo not drawn)"
parameter = "Potency"
valueobserved = "inactive"

[[record]]
molecule = "N=C(N)c1ccc(OCCCCCOc2ccc(C(=N)N)cc2)cc1"
parameter = "Potency"
valueobserved = "2 µM (active)"

[[record]]
molecule = "CC(=O)Oc1ccccc1C(=O)Nc1ncc([N+](=O)[O-])s1"
parameter = "Potency"
valueobserved = "8.91 µM (active)"


I have this molecule here, CC[C@H](NC(C)C)[C@H](O)c1ccc(O)c2[nH]c(=O)ccc12 , and I need its recorded Potency.
inactive

I have this molecule here, NC(=O)N1c2ccccc2CC(=O)c2ccccc21 , and I need its recorded Potency.
inactive

I have this molecule here, Nc1nc(N)nc(-c2cc(Cl)ccc2Cl)n1 , and I need its recorded Potency.
inactive
